Cited source for all entries: PubChem BioAssay (NCI)

- System: RXF 393 renal
- test: NCI-60 one-dose screen, 48 h (100 = growth as untreated, 0 = no growth, -100 = all killed)
- assayConditions: 10 µM unless noted
This is part of a sample that, as a whole, favours compounds with a hit. Of some 83,000 tested, about 20% had one in any assay.
Catalogue of growth readings, one per entry.
The reply should contain only the number, in %.

Consider the reported growth for these compounds:
compound	growth [%]
Nc1ccc(-n2c(=O)oc3ccc(Cl)cc3c2=O)c(Cl)c1	-6.99
FC(F)(F)c1cccc(CNC2CCN(CCc3ccccc3)CC2)c1	84.1
COC(=O)c1ccc(NC(=O)CSc2nc3ccccc3c(=O)n2-c2ccccc2)cc1	111
COc1ccc(S(=O)(=O)N(Cc2ccc3c(n2)C=CC(C)(C)O3)C2CCC2)cc1OC	-20.2
COc1ccc(OC)c(NC(=O)/C(C#N)=C/c2ccco2)c1	113
COc1ccc(C2C3=C(COC3=O)N(CCO)c3cc4c(cc32)CCC4)cc1OC (stereo unspecified)	-42.7
COc1ccccc1C1=C(Br)C(=O)c2nc(C)ccc2C1=O	102
Cc1sc2ncn(CC(=O)Nc3ccc(S(N)(=O)=O)cc3)c(=O)c2c1C	114
COc1cc(C(=O)Nc2ccc(-c3nc4ccccc4[nH]3)cc2)cc(OC)c1OC	28
O=C(Nc1ccc(Br)cc1F)c1cc(F)ccc1O	4.59

Here is the next item to consider.
Query :: Param item = CCOC(=O)C1=C(C)N=c2s/c(=C\c3cc(Cl)ccc3O)c(=O)n2C1c1ccc(OC)cc1 (stereo unspecified) ; retrieve measured growth.
Result :: 80.9

---

- System: OVCAR-5 ovarian
- test: NCI-60 one-dose screen, 48 h
- assayConditions: 10 µM unless noted
- Protocol: Growth inhibition of the OVCAR-5 human tumor cell line is measured as a screen for anti-cancer activity. Cells are grown in 96 well plates and exposed to the test compound for 48 hours. Compounds are tested at a single concentration, which is 10^-5 M for most compounds. The reported endpoint is percent growth (GI% or GIPRCNT), where numbers from 0 - 100% represent growth inhibition, and numbers from -100% - 0 represent cell death. For example, a value of 40 represents 60% growth inhibition. […]
This is part of a sample that, as a whole, favours compounds with a hit. Of some 83,000 tested, about 20% had one in any assay. The source made the active and inactive calls. The calls were made as follows: active = growth percent below 10; inactive = the rest.
Reply using exactly one outcome from active, inactive

molecule	answerLabel
COc1cccc(/C(C#N)=C/c2nc3c(N4CCOCC4)nc(Cl)nc3n2C)c1	active

Query :: Dear colleague, could you share the recorded outcome for CC[C@]1(O)C[C@@H]2CN(CCc3c([nH]c4ccccc34)[C@@](C(=O)OC)(c3cc4c(cc3OC)N(C)[C@H]3[C@@](O)(C(=O)OC)[C@H](OC(=O)CCCBr)[C@]5(CC)C=CCN6CC[C@]43[C@@H]65)C2)C1 when you have a moment?
Result :: inactive

Query :: Could you please tell me the result logged for c1ccc2cc3c(Nc4ccc(N5CCOCC5)cc4)ccnc3cc2c1 in this assay?
Result :: inactive

Query :: Outcome? Cc1[nH]c2ccccc2c(=O)c1CC=C(Cl)Cl
Result :: inactive

Query :: # lookup: test call for O=c1[nH]nnc2c1ncn2C1OC(CO)C(O)C1O (configuration not stated)
Result :: inactive

---

- Test system: NCI-H322M lung
- test: NCI-60 one-dose screen, 48 h
- assayConditions: 10 µM unless noted
This is part of a sample that, as a whole, favours compounds with a hit. Of some 83,000 tested, about 20% had one in any assay. Calls of active or inactive are those of the source. How the source made its calls: active means growth percent below 10; inactive means the rest.
Mark one answer only. Choices: active, inactive

compound	answerLabel
CC(=O)c1ccc2oc(=O)n(Cc3ccc(C#N)cc3)c(=O)c2c1	inactive
O=C(O)CCC(=O)c1ccc(C2CCCCCC2)cc1	inactive
CC/C=C\C[C@H](O)C/C=C1/C(=O)C=C[C@@H]1C/C=C\CCCC(=O)OCCS(=O)(=O)c1ccccc1	inactive
COc1cc(/C=C/C(=O)N2c3ccccc3CC2C)c(OC)c2c1OCO2 (stereo unspecified)	inactive

Query :: Each compound tested received a call. Report the one for O=C(/C=C/c1ccc(Cl)cc1)c1ccc(Nc2nc(NCCO)nc(Nc3ccc(Cl)cc3)n2)cc1 .
Result :: inactive

Query :: Hey, what did the test say about COC(=O)/C(CCC=C(C)C)=C1\[C@@H](OC(C)=O)C[C@@]2(C)[C@H]1CC(=O)N[C@H]1[C@@]3(C)CCNC(=O)[C@@H](C)[C@@H]3CC[C@@]12C ?
Result :: inactive

Query :: Answer briefly: the call reported for CCOC(=O)C1=C(C)c2ccc(OC)c(OC)c2C1 in this assay.
Result :: inactive
